Values were extracted from patent US11839613B2.

ASSAYED SYSTEM: PTGER4 (EP4) (Homo sapiens (Human), UniProt P35408)
Sequence (P35408 whole entry): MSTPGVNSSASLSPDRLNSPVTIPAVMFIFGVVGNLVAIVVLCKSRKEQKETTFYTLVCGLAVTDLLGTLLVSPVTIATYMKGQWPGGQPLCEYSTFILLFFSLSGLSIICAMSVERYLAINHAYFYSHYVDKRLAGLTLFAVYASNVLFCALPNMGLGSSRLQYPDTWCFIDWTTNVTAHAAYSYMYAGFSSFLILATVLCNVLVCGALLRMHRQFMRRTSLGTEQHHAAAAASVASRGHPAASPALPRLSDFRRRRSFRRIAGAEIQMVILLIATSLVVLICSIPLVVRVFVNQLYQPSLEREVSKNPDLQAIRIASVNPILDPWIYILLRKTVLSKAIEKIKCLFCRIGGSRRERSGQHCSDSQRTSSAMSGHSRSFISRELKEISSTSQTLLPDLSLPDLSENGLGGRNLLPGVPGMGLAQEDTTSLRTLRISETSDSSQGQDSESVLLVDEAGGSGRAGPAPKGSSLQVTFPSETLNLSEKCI
EXPERIMENTAL DETAILS: cell-based
RESULT TYPE: IC50 (µM)

INSERT INTO assay_data (structure_as_smiles, result_type, readout_unit, obs_value) VALUES
  ('CCOc1cc(-c2cc(NCCc3ccc4sccc4c3F)ncn2)cc(F)c1CC(=O)O', 'IC50', 'µM', 0.046),
  ('CCOc1cc(-c2cc(NCCc3cc4cccnc4cc3F)ncn2)sc1C(=N)NO', 'IC50', 'µM', 0.031);

(1) CCCc1cc(-c2cc(NCCc3cc(F)c4sccc4c3)ncn2)ccc1C(=O)NCC(C)(C)O
(2) Cc1c(CCNc2cc(-c3ccc(C(=O)O)c(CC(C)C)c3)ncn2)ccc2ccccc12
Higher IC50 between 1 and 2 ? I would appreciate it if you answered with the label of your choice.
1
(1: 0.236 µM, 2: 0.12 µM)
